Overview of recorded pIC50 for various compounds
- measured on: KRAS G13C (Homo sapiens, UniProt P01116+P62937, G13C)
- Sequence (P01116 1-169 isoform P01116-2 G13C, one chain of several): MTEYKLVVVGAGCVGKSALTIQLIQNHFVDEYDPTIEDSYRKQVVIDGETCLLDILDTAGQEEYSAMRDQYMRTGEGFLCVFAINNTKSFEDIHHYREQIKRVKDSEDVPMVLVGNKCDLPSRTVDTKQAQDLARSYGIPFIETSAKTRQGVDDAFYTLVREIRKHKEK
- test method notes: Disruption of BRAF RBD interaction with Ras (FRET / MOA assay, with Cyclophilin A)
- Format: biochemical
- condition summary: KRAS G13C; read-out: KRAS G13C FRET data IC50
pIC50: −log10 of the molar value.

# query: pIC50 of entry `CCn1c(-c2cccnc2[C@H](C)OC)c2c3cc(ccc31)-c1cccc(c1)C[C@H](NC(=O)[C@H](C(C)C)N1CC[C@]3(CCN(C(=O)C#C[C@]4(N(C)C)CCOC4)C3)C1=O)C(=O)N1CCC[C@H](N1)C(=O)OCC(C)(C)C2`
6.00 to 7.00

Field request: pIC50 | item: `C=CC(=O)N1CC[C@H](C(=O)N(C)[C@H](C(=O)N[C@H]2Cc3cc(cc(O)c3F)-c3ccc4c(c3)c(c(-c3ccccc3CCOC)n4CC)CC(C)(C)COC(=O)[C@@H]3CCCN(N3)C2=O)C(C)C)C1`
< 5.00

Would you mind telling me what pIC50 value was observed for CCn1c(-c2cccnc2[C@H](C)OC)c2c3cc(ccc31)-c1csc(n1)C[C@H](NC(=O)[C@H](C(C)C)N(C)C(=O)N(C)C1CN(C(=O)/C=C/C(C)(C)O)C1)C(=O)N1CCC[C@H](N1)C(=O)OCC(C)(C)C2 (atropisomer, axis not shown) ?
6.00 to 7.00

Using the record for `C=CC(=O)N1CC[C@H](C(=O)N(C)[C@H](C(=O)N[C@H]2Cc3cc(O)cc(c3)-c3ccc4c(c3)c(c(-c3ccc(CN(C)C)cc3COC)n4CC)CC(C)(C)COC(=O)[C@@H]3CCCN(N3)C2=O)C(C)C)C1` , report its pIC50.
5.00 to 6.00

What measured pIC50 goes with `C=CC(=O)N1CC[C@H](C(=O)N(C)[C@H](C(=O)N[C@H]2Cc3cc(O)cc(c3)-c3ccc4c(c3)c(c(-c3ccncc3)n4C(C)(C)C#N)CC(C)(C)COC(=O)[C@@H]3CCCN(N3)C2=O)C(C)C)C1` ?
6.00 to 7.00

Would you kindly share the measured pIC50 for `CCn1c(-c2cnccc2COC)c2c3cc(ccc31)-c1cc(O)cc(c1)C[C@H](NC(=O)[C@H](C(C)C)N(C)C(=O)[C@H]1CCN(C(=O)/C=C/CN(C)C)C1)C(=O)N1CCC[C@H](N1)C(=O)OCC(C)(C)C2` ?
6.00 to 7.00

Record request: pIC50 value, item `C=CC(=O)N1CCC(C(=O)N(C)[C@H](C(=O)N[C@H]2Cc3cc(O)cc(c3)-c3ccc4c(c3)c(c(-c3ccccc3CN(C)C)n4CC)CC(C)(C)COC(=O)[C@@H]3CCCN(N3)C2=O)C(C)C)CC1`
6.00 to 7.00

I would be grateful if you could share the reported pIC50 for `C=CC(=O)N1C[C@@H](C(=O)N(C)[C@H](C(=O)N[C@H]2Cc3cccc(c3)-c3ccc4c(c3)c(c(-c3cccnc3[C@H](C)OC)n4CC)CC(C)(C)COC(=O)[C@@H]3CCCN(N3)C2=O)C(C)C)[C@@H](C(F)(F)F)C1` .
6.00 to 7.00

Recorded pIC50 of `C=CC(=O)N1CC[C@H](C(=O)N(C)[C@H](C(=O)N[C@H]2Cc3cc(O)cc(c3)-c3ccc4c(c3)c(c(-c3cnn(C)c3)n4CC)CC(C)(C)COC(=O)[C@@H]3CCCN(N3)C2=O)C(C)C)C1` , please.
5.00 to 6.00

Name the reported pIC50 value associated with the compound CCn1c(-c2cccnc2[C@H](C)OC)c2c3cc(ccc31)-c1cccc(c1)C[C@H](NC(=O)[C@@H](COC1CN(C(=O)C#C[C@@H]3COCCN3C)C1)C(C)C)C(=O)N1CCC[C@H](N1)C(=O)OCC(C)(C)C2 (atropisomer, axis not shown)
5.00 to 6.00

Value lookup for pIC50; key = `C=CC(=O)N1CCO[C@H]2CN(C(=O)N(C)[C@H](C(=O)N[C@H]3CN4CCC=C(C4)c4ccc5c(c4)c(c(-c4cccnc4[C@H](C)OC)n5CC)CC(C)(C)COC(=O)[C@@H]4CCCN(N4)C3=O)C(C)C)C[C@H]21`
7.00 to 8.00

----------
- measured on: NRAS Q61R (Homo sapiens, UniProt P01111+P62937, Q61R)
- Sequence (P01111 whole entry Q61R): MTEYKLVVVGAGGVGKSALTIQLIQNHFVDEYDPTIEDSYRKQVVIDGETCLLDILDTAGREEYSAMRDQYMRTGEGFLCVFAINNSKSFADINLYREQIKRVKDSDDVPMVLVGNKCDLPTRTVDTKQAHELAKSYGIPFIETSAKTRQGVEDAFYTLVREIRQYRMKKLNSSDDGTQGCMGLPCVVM
- Sequence (P62937 whole entry): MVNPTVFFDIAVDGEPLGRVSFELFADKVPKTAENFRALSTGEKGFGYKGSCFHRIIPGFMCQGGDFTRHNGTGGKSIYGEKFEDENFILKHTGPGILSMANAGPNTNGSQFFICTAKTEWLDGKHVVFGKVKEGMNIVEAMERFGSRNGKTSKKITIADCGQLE
- test method notes: Disruption of BRAF RBD interaction with Ras (FRET / MOA assay, with Cyclophilin A)
- Format: biochemical
- condition summary: NRAS Q61R; read-out: NRAS Q61R FRET data IC50
pIC50: −log10 of the molar value.
value type: pIC50

Sample answers from the record:
# compound, pIC50
records = [
    ("CCn1c(-c2cccnc2[C@H](C)OC)c2c3cc(ccc31)-c1csc(n1)C[C@H](NC(=O)[C@H](C(C)C)N(C)C(=O)N1CC(N(C)C)C1)C(=O)N1CCC[C@H](N1)C(=O)OCC(C)(C)C2 (racemic)", "6.00 to 7.00"),
    ("CCn1c(-c2cccnc2[C@H](C)OC)c2c3cc(ccc31)-c1csc(n1)C[C@H](NC(=O)[C@H](C(C)C)N(C)C(=O)N1CC(OC)C1)C(=O)N1CCC[C@H](N1)C(=O)OCC(C)(C)C2 (racemic)", "6.00 to 7.00"),
    ("CCn1c(-c2cccnc2[C@H](C)OC)c2c3cc(ccc31)-c1csc(n1)C[C@H](NC(=O)C1(F)COC1)C(=O)N1CCC[C@H](N1)C(=O)OCC(C)(C)C2", "5.00 to 6.00"),
]

Now for another entry.
Please report the recorded pIC50 for C=CC(=O)N(C)[C@H]1CN(C(=O)N(C)[C@H](C(=O)N[C@H]2Cc3nc(cs3)-c3ccc4c(c3)c(c(-c3cccnc3[C@H](C)OC)n4CC)CC(C)(C)COC(=O)C3CCCN(N3)C2=O)C(C)C)C[C@@H]1F (stereo partly shown) .
6.00 to 7.00

----------
pIC50 by entry:
- measured on: KRAS G13C (Homo sapiens, UniProt P01116+P62937, G13C)
- test method notes: Disruption of BRAF RBD interaction with Ras (FRET / MOA assay, with Cyclophilin A)
- Format: biochemical
- condition summary: read-out: KRAS G13C FRET data, IC50
pIC50: −log10 of the molar value.

# compound, observed value
rows = [
    ("CCn1c(-c2cccnc2[C@H](C)OC)c2c3cc(ccc31)-c1cc(O)cc(c1)C[C@H](NS(=O)(=O)c1cn(C)c(C)n1)C(=O)N1CCC[C@H](N1)C(=O)OCC(C)(C)C2", "< 5.00"),
    ("CCn1c(-c2cccnc2[C@H](C)OC)c2c3cc(ccc31)-c1csc(n1)C[C@H](NC(=O)[C@H](CC1CC1)N(C)C(=O)N1CC(OC)C1)C(=O)N1CCC[C@H](N1)C(=O)OCC(C)(C)C2 (atropisomer, axis not shown)", "7.00 to 8.00"),
    ("CCn1c(-c2cccnc2[C@H](C)OC)c2c3cc(ccc31)-c1cc(O)cc(c1)C[C@H](NS(=O)(=O)N1CCN(C)CC1)C(=O)N1CCC[C@H](N1)C(=O)OCC(C)(C)C2 (racemic)", "< 5.00"),
    ("CCn1c(-c2cnccc2COC)c2c3cc(ccc31)-c1cc(O)cc(c1)C[C@H](NC(=O)[C@H](C(C)C)N(C)C(=O)[C@H]1CCNC1)C(=O)N1CCC[C@H](N1)C(=O)OCC(C)(C)C2", "7.00 to 8.00"),
    ("CCn1c(-c2cccnc2[C@H](C)OC)c2c3cc(ccc31)-c1csc(n1)C[C@H](NC(=O)[C@H](C(C)C)N1CCN(C)C1=O)C(=O)N1CCC[C@H](N1)C(=O)OCC(C)(C)C2", "5.00 to 6.00"),
    ("CCn1c(-c2cccnc2[C@H](C)OC)c2c3cc(ccc31)-c1csc(n1)C[C@H](NC(=O)[C@H](C(C)C)N(C)C(=O)N1CC(C3CN(C)C3)C1)C(=O)N1CCC[C@H](N1)C(=O)OCC(C)(C)C2 (atropisomer, axis not shown)", "6.00 to 7.00"),
    ("CCn1c(-c2cccnc2[C@H](C)OC)c2c3cc(ccc31)-c1csc(n1)C[C@H](NC(=O)[C@H](C(C)C)N(C)C(=O)N1CCC13CN(C)C3)C(=O)N1CCC[C@H](N1)C(=O)OCC(C)(C)C2", "6.00 to 7.00"),
    ("CCn1c(-c2cccnc2[C@H](C)OC)c2c3cc(ccc31)-c1cc(O)cc(c1)C[C@H](NS(=O)(=O)c1cnc[nH]1)C(=O)N1CCC[C@H](N1)C(=O)OCC(C)(C)C2 (racemic)", "< 5.00"),
]

# input compound: `CCn1c(-c2cccnc2[C@H](C)OC)c2c3cc(ccc31)-c1nc(cs1)C[C@H](NC(=O)[C@H](C(C)C)N(C)C(C)=O)C(=O)N1CCC[C@H](N1)C(=O)OCC(C)(C)C2` ; wanted: its pIC50
5.00 to 6.00

What does the data say about its pIC50? Entry: CCn1c(-c2cccnc2[C@H](C)OC)c2c3cc(ccc31)-c1cc(O)cc(c1)C[C@H](NC(=O)[C@H](C(C)C)N(C)C(=O)C1CN(C)C1)C(=O)N1CCC[C@H](N1)C(=O)OCC(C)(C)C2 (atropisomer, axis not shown)
7.00 to 8.00

Need pIC50 of `CCN(C(=O)N(C)[C@H](C(=O)N[C@H]1Cc2nc(cs2)-c2ccc3c(c2)c(c(-c2cccnc2[C@H](C)OC)n3CC)CC(C)(C)COC(=O)[C@@H]2CCCN(N2)C1=O)C(C)C)C1CC1` , thanks.
6.00 to 7.00

For the compound shown here, `CCn1c(-c2cccnc2[C@H](C)OC)c2c3cc(ccc31)-c1csc(n1)C[C@H](NC(=O)[C@H]1C[C@@H]1C)C(=O)N1CCC[C@H](N1)C(=O)OCC(C)(C)C2` , give the reported pIC50.
6.00 to 7.00

Given `CCn1c(-c2cccnc2[C@H](C)OC)c2c3cc(ccc31)-c1csc(n1)C[C@H](NC(=O)[C@H](C(C)C)N(C)C(=O)O[C@H]1CCN(C)C1)C(=O)N1CCC[C@H](N1)C(=O)OCC(C)(C)C2` , state its recorded pIC50.
5.00 to 6.00

Can you look up the measured pIC50 of `CCn1c(-c2cccnc2COC)c2c3cc(ccc31)-c1cc(O)cc(c1)C[C@H](NC(=O)[C@H](C(C)C)N(C)C(=O)[C@H]1CCNC1)C(=O)N1CCC[C@H](N1)C(=O)OCC(C)(C)C2` for me?
6.00 to 7.00

Which pIC50 reading was recorded for the compound `CCn1c(-c2cccnc2[C@H](C)OC)c2c3cc(ccc31)-c1cc(O)cc(c1)C[C@H](NC(=O)[C@H](C(C)C)N(C)C(=O)[C@H]1CCN(C(=O)[C@@H]3CCCN3C)C1)C(=O)N1CCC[C@H](N1)C(=O)OCC(C)(C)C2` ?
7.00 to 8.00

What does the record list as pIC50 for CCn1c(-c2cccnc2[C@H](C)OC)c2c3cc(ccc31)-c1csc(n1)C[C@H](NC(=O)[C@H](C(C)C)N(C)C(=O)N1CC([C@@H](C)CO)C1)C(=O)N1CCC[C@H](N1)C(=O)OCC(C)(C)C2 (single isomer, unassigned) ?
6.00 to 7.00
